assay_notes: Quantitative High-Throughput drug screen in 47 multiple myeloma cell lines against the NCATS MIPE library collection: Delta47_JCRB cell viability assay (AID 1918925; further: nearly all actives have a fitted effect of over 45% in size; further: potency means the concentration at half of the fitted maximal effect)
experimental_conditions: Delta47 myeloma viability, CellTiter-Glo ATP, 48 h; series mostly up to 45.8 µM
Results filed as inconclusive are left out. Active and inactive are the calls of the source. The call rests on the fitted dose curve; in most records, active means well fitted cell-killing curve with a large enough effect; inconclusive means small, poorly fitted or top-dose-only effect, or effect the other way; inactive means no such curve, though single readings can be large or run the other way.
outcome_measure: Potency

Consider the worked cases shown below.
- CC(=O)OCC1=C(C(=O)O)N2C(=O)[C@@H](N)[C@@H]2SC1: inactive
- CC[C@@H]1[C@@H](C)O[C@@](O)([C@@H](C)[C@H](O)[C@H](C)[C@H]2OC(=O)C=CC=C[C@@H](C)[C@@H]([C@@H](C)[C@@H](O)[C@H](C)[C@@]3(O)C[C@H](O[C@H]4C[C@H](O)[C@H](O)[C@H](C)O4)[C@H](CC)[C@@H](C)O3)OC(=O)C=CC=C[C@@H]2C)C[C@H]1O[C@H]1C[C@H](O)[C@H](O)[C@H](C)O1: 743 nM (active)
- CCc1c(C(=O)C(N)=O)c2c(OCC(=O)O)cccc2n1Cc1ccccc1: inactive
- COc1ccc2c(c1)CN(C)CC2c1ccc(Cl)c(Cl)c1 (configuration not stated): 23500 nM (active)
- C[C@]12CC[C@H]3[C@@H](CCC4=CC(=O)CC[C@@]43C)[C@H]1CC[C@H]2OC(=O)CCC1CCCC1: inactive
- Cc1ccccc1-n1c(Cn2cnc3c(N)ncnc32)nc2cccc(C)c2c1=O: 105 nM (active)

Next compound, please.
(Q) I have this compound here, C#CC1(O)CCC2C3CCC4=CC(=O)CCC4(C)C3CCC21C (configuration not stated) , and I need its recorded Potency.
(A) inactive
